Data provenance: patent US20190033318A1

- tested-target: T1, HIF-1α (construct not given) (UniProt Q16665 1-350, limits assumed)
- T1 construct: also called HIF-1 ELISA
- test-method-notes: HIF-1 ELISA, inhibition of HIF-1α/HIF-1β dimerisation
Starred links: 1 amine or outer side, 2 acyl side, 3 side chain; linkers in the order of their positions; H or OH if unused. Non-standard residues stand in square brackets, D forms with d. Tyr(Me) = 4-methoxyphenylalanine (O-methyl-tyrosine), COc1ccc(C[C@H](N[*:1])C(=O)[*:2])cc1; Tyr(3-NO2) = N[C@@H](Cc1ccc(O)c([N+](=O)[O-])c1)C(=O)O; Phe(4-NO2) = N[C@@H](Cc1ccc([N+](=O)[O-])cc1)C(=O)O; Phe(4-Cl) = N[C@@H](Cc1ccc(Cl)cc1)C(=O)O; Cha = N[C@@H](CC1CCCCC1)C(=O)O; Pal = not defined here
metric: pIC50
Numbers only, as −log10 of the molar value.

| binder | measured |
| --- | --- |
| cyclo(CRLLI[Tyr(Me)]) (SMILES CC[C@H](C)[C@@H]1NC(=O)[C@H](CC(C)C)NC(=O)[C@H](CC(C)C)NC(=O)[C@H](CCCNC(=N)N)NC(=O)[C@H](CS)NC(=O)[C@H](Cc2ccc(OC)cc2)NC1=O, also called CRLLIX where X = 4-MeO-F) [CRLLI(4-MeO-F)] | 4.44 |
| cyclo(CRLLI[Tyr(3-NO2)]) (SMILES CC[C@H](C)[C@@H]1NC(=O)[C@H](CC(C)C)NC(=O)[C@H](CC(C)C)NC(=O)[C@H](CCCNC(=N)N)NC(=O)[C@H](CS)NC(=O)[C@H](Cc2ccc(O)c([N+](=O)[O-])c2)NC1=O, also called CRLLIX where X = 3-NO2-Y) [CRLLI(3-NO2-Y)] | 4.71 |
| cyclo(CRLLI[Pal]) (not fully specified; printed as CRLLI(Pal); reading uncertain, also called CRLLIX where X = Pal) [CRLLI(Pal)] | 3.53 |

Would you mind giving pIC50 for every binder in the list below?
1. cyclo(CRLLI[Phe(4-NO2)]) (also called CRLLIX where X = 4-NO2-F) [CRLLI(4-NO2-F)]
2. cyclo(CRLLI[Cha]) (also called CRLLIX where X = Cha) [CRLLI(Cha)]
3. cyclo(CRLLI[Phe(4-Cl)]) (also called CRLLIX where X = 4-Cl-F) [CRLLI(4-Cl-F)]

1: 4.56; 2: 4.59; 3: 4.88
